# Test system: Hs-578T
# Procedure Details: NCI tumour cell line growth inhibition, 48 h
The source made the active and inactive calls. Cut-off read from the data, not from the text of the source: active = GI50 up to about 1.1 µM and inactive = higher.
Your answer must be one of the following: active, inactive

Some solved entries appear below for comparison.
| Compound | Measurement Target | Answer Label |
| --- | --- | --- |
| Cc1ccc(-n2cc([Si](C)(C)C)nn2)s1 | Hs-578T | inactive |
| Cc1ccc(/C=C2\Cc3cc(C)c(C)cc3C2=O)c(C(=O)O)c1 | Hs-578T | inactive |
| C/C(=N\Nc1nc2cc(C(F)(F)F)ccc2s1)c1ccccn1 | Hs-578T | inactive |
| COC(=O)C1Cc2c([nH]c3ccccc23)-c2[nH]c3ccccc3c2CC(NC(C)=O)C(=O)NCC(=O)NCC(=O)N1 (configuration not stated) | Hs-578T | inactive |
| COc1cc(Cn2c3c(c4cc(O)ccc42)C(=O)c2ccccc2C3=O)cc(OC)c1 | Hs-578T | inactive |

Field: outcome | Entry: COc1ccc(C2=NNC(c3cc4cc(Br)ccc4nc3Cl)C2)cc1 (configuration not stated)
active

Kindly provide the recorded test outcome for the following compound: "CNC(=O)Nn1c(SC)nc2ccccc21"
inactive

Recorded test outcome, item COc1ccc(C2=CC(c3ccccc3)n3nnnc3N2)cc1 (configuration not stated)
inactive

How did this test come out for CC(C)OP(=O)(OC(C)C)C(Nc1cccc(C(F)(F)F)c1)c1ccccc1 (configuration not stated) ?
inactive

Record lookup: outcome of this test for "O=C1NC(N2CCOCC2)=N/C1=C\c1ccccc1" ?
inactive

From: ChEMBL document CHEMBL1201862
